Below: a set of entries, each annotated with reported pKd.
target: T1, human IgG2 (human, UniProt P01859-1 1-326 = IgG part); test: fluorescence anisotropy; pH 7.4, 0.01 M Tris-HCl
T1 construct: Calbiochem; plasma IgG2 in anisotropy studies, myeloma-derived (cat. 400122) in batch/column studies; also called hIgG2
T1 sequence (P01859 other isoform, or with tags, fused parts or gaps): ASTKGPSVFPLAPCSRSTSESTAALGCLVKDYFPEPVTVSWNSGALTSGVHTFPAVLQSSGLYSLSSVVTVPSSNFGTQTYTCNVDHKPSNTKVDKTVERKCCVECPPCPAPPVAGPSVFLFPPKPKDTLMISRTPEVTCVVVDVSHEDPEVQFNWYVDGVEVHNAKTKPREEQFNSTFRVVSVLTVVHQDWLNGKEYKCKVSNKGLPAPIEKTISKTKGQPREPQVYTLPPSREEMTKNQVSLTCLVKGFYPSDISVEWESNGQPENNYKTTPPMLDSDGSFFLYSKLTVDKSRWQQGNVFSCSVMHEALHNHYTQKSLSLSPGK
Positions of bridges follow the written chain, without caps; N, C: chain ends.
Please keep in mind that pKd is minus log10 of the molar concentration; only the number is needed.

// worked examples, pKd included
{"binder": "Ac-AGYYWCNYWGLCPDQGTPGPEGGGK-NH2 (not fully specified (bridges); printed as Ac-AGYYWCNYWGLCPDQGTPGPEGGGK-NH2; cysteine pairing not given here; also: fluorescein-labelled form in anisotropy assays, place not given here, Fluorescein-labelled in anisotropy assays; immobilised in batch assays) [DX254]", "pKd": 5.70}
{"binder": "Ac-GDDDHCYWFREWFNSECPHGEPGPEGGGK-NH2 (not fully specified (bridges); printed as Ac-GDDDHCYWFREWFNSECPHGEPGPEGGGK-NH2; cysteine pairing not given here; also: fluorescein-labelled form in anisotropy assays, place not given here, Fluorescein-labelled in anisotropy assays; immobilised in batch/column assays) [DX252]", "pKd": 5.47}

For the next question, use this binder.
Would you mind telling me what pKd value was observed for Ac-GDDHMCVYTTWGELIWCDNHEPGPEGGGK-NH2 (disulfide 6-17 (inferred), Synthetic disulfide-cyclised peptide) [DX249] ?
5.74
